Tested on: 843126-344-R-J1-PDC complex spheroid viability;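 note: spheroids exposed to drugs for seven days before readout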
Experiment: Anticancer human tumor 843126-344-R-J1-PDC patient-derived melanoma cell line growth inhibition [POLQ]
Conditions: second compound 10 µM; first compound 3.16 µM; stronger effect = lower value
Outcome Measure: viability, T/C (%)
Give just the number in %; leave the unit off.

Quick note, viability, T/C for C=CC(=O)N1CCN(c2nc(=O)n(-c3c(C)ccnc3C(C)C)c3nc(-c4c(O)cccc4F)c(F)cc23)C(C)C1 (stereo not given) + Nc1ccc(C#CCN(C(=O)Cc2ncc(C(F)(F)F)cc2C(F)(F)F)c2ccc(F)cc2)nn1 landed at 95.7

Quick note, viability, T/C for CC1COCCN1c1cc(-c2ccnn2C)c2ccnc(-c3ccn[nH]3)c2n1 (stereo not given) + Cc1cccc(N(C)C(=O)C2C(O)CCN2c2nc(C)cc(C(F)(F)F)c2C#N)c1 landed at 45.1

Quick note, viability, T/C for CC1COCCN1c1cc(-c2ccnn2C)c2ccnc(-c3ccn[nH]3)c2n1 (stereo not given) + COC1C(OC(N)=O)C(O)C(Oc2ccc3c(O)c(NC(=O)c4ccc(O)c(CC=C(C)C)c4)c(=O)oc3c2C)OC1(C)C landed at 42.9

Quick note, viability, T/C for C#Cc1c(F)ccc2cc(O)cc(-c3ncc4c(N5CC6CCC(C5)N6)nc(OCC56CCCN5CC(F)C6)nc4c3F)c12 (stereo not given) + Cc1cccc(N(C)C(=O)C2C(O)CCN2c2nc(C)cc(C(F)(F)F)c2C#N)c1 landed at 91.6

Quick note, viability, T/C for CC(C)n1c(=O)n(C)c2cnc3cc(F)c(-c4ccc(OCCCN5CCCCC5)nc4)cc3c21 + COC1C(OC(N)=O)C(O)C(Oc2ccc3c(O)c(NC(=O)c4ccc(O)c(CC=C(C)C)c4)c(=O)oc3c2C)OC1(C)C landed at 75.8

Quick note, viability, T/C for CCc1cc2c(N3CCc4c(cc(Cn5ccnc5)cc4-c4cn(C)nc4C(F)(F)F)C3=O)ccnc2c(OC)n1 + Cc1cccc(N(C)C(=O)C2C(O)CCN2c2nc(C)cc(C(F)(F)F)c2C#N)c1 landed at 70.7

Quick note, viability, T/C for Nc1ccn(C2OC(CO)C(O)C2(F)F)c(=O)n1 (stereo not given) + Cc1cccc(N(C)C(=O)C2C(O)CCN2c2nc(C)cc(C(F)(F)F)c2C#N)c1 landed at 43.5

Quick note, viability, T/C for O=C(Nc1ccc(O)c(NS(=O)(=O)c2ccc(F)cc2)c1)c1ccc(-c2ccccc2)cc1 + Nc1ccc(C#CCN(C(=O)Cc2ncc(C(F)(F)F)cc2C(F)(F)F)c2ccc(F)cc2)nn1 landed at 80.6

Quick note, viability, T/C for O=C(c1cc(Cc2n[nH]c(=O)c3ccccc23)ccc1F)N1CCN(C(=O)C2CC2)CC1 + Nc1ccc(C#CCN(C(=O)Cc2ncc(C(F)(F)F)cc2C(F)(F)F)c2ccc(F)cc2)nn1 landed at 81.3

Quick note, viability, T/C for CCc1cc2c(N3CCc4c(cc(Cn5ccnc5)cc4-c4cn(C)nc4C(F)(F)F)C3=O)cc(C)nc2c(OC)n1 + Cc1cccc(N(C)C(=O)C2C(O)CCN2c2nc(C)cc(C(F)(F)F)c2C#N)c1 landed at 82.5

Quick note, viability, T/C for COc1cc(C2c3cc4c(cc3C(OC3OC5COC(C)OC5C(O)C3O)C3COC(=O)C23)OCO4)cc(OC)c1O (stereo not given) + Cc1cccc(N(C)C(=O)C2C(O)CCN2c2nc(C)cc(C(F)(F)F)c2C#N)c1 landed at 50.6

Quick note, viability, T/C for CC(C)n1c(=O)n(C)c2cnc3cc(F)c(-c4ccc(OCCCN5CCCCC5)nc4)cc3c21 + Nc1ccc(C#CCN(C(=O)Cc2ncc(C(F)(F)F)cc2C(F)(F)F)c2ccc(F)cc2)nn1 landed at 78.3

Quick note, viability, T/C for CNCc1ccc(-c2[nH]c3cc(F)cc4c3c2CCNC4=O)cc1 + Nc1ccc(C#CCN(C(=O)Cc2ncc(C(F)(F)F)cc2C(F)(F)F)c2ccc(F)cc2)nn1 landed at 91.5

Quick note, viability, T/C for CCCS(=O)(=O)Nc1ccc(F)c(C(=O)c2c[nH]c3ncc(-c4ccc(Cl)cc4)cc23)c1F + Nc1ccc(C#CCN(C(=O)Cc2ncc(C(F)(F)F)cc2C(F)(F)F)c2ccc(F)cc2)nn1 landed at 74

Quick note, viability, T/C for C#Cc1c(F)ccc2cc(O)cc(-c3ncc4c(N5CC6CCC(C5)N6)nc(OCC56CCCN5CC(F)C6)nc4c3F)c12 (stereo not given) + Nc1ccc(C#CCN(C(=O)Cc2ncc(C(F)(F)F)cc2C(F)(F)F)c2ccc(F)cc2)nn1 landed at 85.8

Quick note, viability, T/C for CC1COCCN1c1cc(C2(S(C)(=N)=O)CC2)nc(-c2ccnc3[nH]ccc23)n1 (stereo not given) + Cc1cccc(N(C)C(=O)C2C(O)CCN2c2nc(C)cc(C(F)(F)F)c2C#N)c1 landed at 72.2

Quick note, viability, T/C for CNCc1ccc(-c2[nH]c3cc(F)cc4c3c2CCNC4=O)cc1 + COC1C(OC(N)=O)C(O)C(Oc2ccc3c(O)c(NC(=O)c4ccc(O)c(CC=C(C)C)c4)c(=O)oc3c2C)OC1(C)C landed at 85.9

Quick note, viability, T/C for O=C(Nc1ccc(O)c(NS(=O)(=O)c2ccc(F)cc2)c1)c1ccc(-c2ccccc2)cc1 + COC1C(OC(N)=O)C(O)C(Oc2ccc3c(O)c(NC(=O)c4ccc(O)c(CC=C(C)C)c4)c(=O)oc3c2C)OC1(C)C landed at 86.8

Quick note, viability, T/C for CC1COCCN1c1cc(C2(S(C)(=N)=O)CC2)nc(-c2ccnc3[nH]ccc23)n1 (stereo not given) + Nc1ccc(C#CCN(C(=O)Cc2ncc(C(F)(F)F)cc2C(F)(F)F)c2ccc(F)cc2)nn1 landed at 65.2

Quick note, viability, T/C for COc1cc2cc(C(=O)CCC(=O)O)sc2cc1OC + COC1C(OC(N)=O)C(O)C(Oc2ccc3c(O)c(NC(=O)c4ccc(O)c(CC=C(C)C)c4)c(=O)oc3c2C)OC1(C)C landed at 107
